Test system: U-46619-induced platelet aggregation
assayMethodText: Inhibition of U-46619-induced platelet aggregation (rat), in vitro in rat platelet rich plasma
Assay type: cell-based
experimentalContext: Rattus norvegicus, Platelet, vehicle ETOH; 1 min preincubation at 37° C
pIC50: −log10 of the molar value.

{"columns": ["molecule", "pIC50"],
 "data": [
  ["CC(=NNC(=S)Nc1ccccc1)[C@@H]1[C@H]2CC[C@H](C2)[C@H]1C/C=C\\CCCC(=O)O [SC-46984]", 7.30],
  ["CC(=NNC(=S)Nc1ccccc1)[C@H]1[C@@H]2CC[C@@H](C2)[C@@H]1C/C=C\\CCCC(=O)O [SC-46985]", 6.01]
]}
